System: PPARg:RXRa 90nM:30nM, anti-RXR (NR concentration 90 nM, RXRa partner concentration 30 nM)
experimental protocol: PBM binding z-score (relative to random genomic background probes); higher = stronger binding; sequences stand for … in GC…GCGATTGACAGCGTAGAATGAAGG
Provide the reported PBM binding z-score of each item.
# answer = number (no unit)

# input sequence: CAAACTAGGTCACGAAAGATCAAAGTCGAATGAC ; wanted: its PBM binding z-score 7.72

Record: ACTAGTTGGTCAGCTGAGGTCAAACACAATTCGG 1.55

Record: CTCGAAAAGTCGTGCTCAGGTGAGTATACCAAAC -0.205

Record: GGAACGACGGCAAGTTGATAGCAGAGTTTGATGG -0.679

Record: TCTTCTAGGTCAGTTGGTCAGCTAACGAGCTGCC 4.54

Record: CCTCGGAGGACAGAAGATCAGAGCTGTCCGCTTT -0.38

Record: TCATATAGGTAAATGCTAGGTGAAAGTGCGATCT 3.81

Record: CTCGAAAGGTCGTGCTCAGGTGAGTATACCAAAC 2.23

Record: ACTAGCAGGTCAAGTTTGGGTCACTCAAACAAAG 3.41

Record: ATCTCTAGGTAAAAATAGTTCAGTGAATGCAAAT 0.283

Record: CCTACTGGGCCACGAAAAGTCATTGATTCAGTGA 0.689

Record: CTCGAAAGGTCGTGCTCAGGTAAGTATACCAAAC 2.94

Record: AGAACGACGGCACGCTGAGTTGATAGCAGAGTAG -0.753

Record: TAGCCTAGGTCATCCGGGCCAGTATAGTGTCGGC 1.5

Record: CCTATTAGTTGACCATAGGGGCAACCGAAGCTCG 0.113

----------
System: LXRb homodimer (NR concentration 270 nM)
experimental protocol: PBM binding z-score (relative to random genomic background probes); higher = stronger binding; sequences stand for … in GC…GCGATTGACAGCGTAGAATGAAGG
# PBM binding z-score >= -0.5 gives y, anything below gives n

Dear colleague, could you confirm whether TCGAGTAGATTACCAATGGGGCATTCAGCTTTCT has PBM binding z-score at or above -0.5? y

Record: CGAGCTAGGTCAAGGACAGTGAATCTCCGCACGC n

Record: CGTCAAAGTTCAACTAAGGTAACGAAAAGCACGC y

Record: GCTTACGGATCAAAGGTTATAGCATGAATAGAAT y

Record: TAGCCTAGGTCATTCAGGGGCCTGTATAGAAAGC y

Record: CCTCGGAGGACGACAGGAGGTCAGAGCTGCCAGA n

Record: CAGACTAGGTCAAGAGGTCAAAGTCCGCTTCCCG y

Record: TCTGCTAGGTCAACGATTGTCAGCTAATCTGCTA y

Record: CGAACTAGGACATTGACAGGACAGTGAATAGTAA n

Record: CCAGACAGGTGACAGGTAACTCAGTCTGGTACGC n

Record: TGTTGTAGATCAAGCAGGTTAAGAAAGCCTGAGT y

Record: GCTAGCAGGCCATTTGGGTCACTGAATGACGGGC n

Record: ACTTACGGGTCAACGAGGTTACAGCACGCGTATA y

Record: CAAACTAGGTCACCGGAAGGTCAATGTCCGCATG y

Record: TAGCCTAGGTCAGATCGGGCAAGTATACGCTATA y

Record: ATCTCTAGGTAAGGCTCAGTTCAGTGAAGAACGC y

Record: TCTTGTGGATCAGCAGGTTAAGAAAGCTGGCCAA y

Record: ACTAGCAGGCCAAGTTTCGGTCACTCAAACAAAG y

Record: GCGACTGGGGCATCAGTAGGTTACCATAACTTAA n

Record: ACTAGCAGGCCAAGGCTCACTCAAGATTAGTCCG n

Record: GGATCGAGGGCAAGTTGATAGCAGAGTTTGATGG y

Record: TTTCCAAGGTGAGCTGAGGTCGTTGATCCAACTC y

Record: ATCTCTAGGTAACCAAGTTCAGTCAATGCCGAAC y

Record: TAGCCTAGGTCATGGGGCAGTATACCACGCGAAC y

Record: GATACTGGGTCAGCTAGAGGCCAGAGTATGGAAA n

Record: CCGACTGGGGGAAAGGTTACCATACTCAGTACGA y

Record: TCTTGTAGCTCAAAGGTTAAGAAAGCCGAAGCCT n

Record: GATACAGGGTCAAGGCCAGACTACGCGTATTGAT y

Record: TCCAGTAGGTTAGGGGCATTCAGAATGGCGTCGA y
